Where do the numbers come from? From patent US11530229B2.

Below is a list of entries, each paired with its recorded pIC50 value.
biological target: Cbl-b (Homo sapiens (Human), UniProt Q13191); experiment: Cbl-b displacement assay (Cbl-b inhibition assay), Biological Example 1; format: binding; conditions: 0.125 nM Cbl-b final concentration (Low); read-out: Cbl-b activity IC50 (Low)
Sequence (Q13191 36-427): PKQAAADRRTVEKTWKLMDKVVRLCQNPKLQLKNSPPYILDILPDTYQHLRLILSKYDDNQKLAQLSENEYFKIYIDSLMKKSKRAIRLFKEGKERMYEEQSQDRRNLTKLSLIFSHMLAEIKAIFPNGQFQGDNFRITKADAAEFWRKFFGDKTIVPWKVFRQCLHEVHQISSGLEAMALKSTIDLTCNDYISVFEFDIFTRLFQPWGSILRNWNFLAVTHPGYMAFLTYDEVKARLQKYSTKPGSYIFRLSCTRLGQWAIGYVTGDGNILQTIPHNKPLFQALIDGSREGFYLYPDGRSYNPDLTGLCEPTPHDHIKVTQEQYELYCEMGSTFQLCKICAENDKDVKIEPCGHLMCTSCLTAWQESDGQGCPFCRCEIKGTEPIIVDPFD
pIC50: −log10 of the molar value.

Q) Request body: readout pIC50, system Cbl-b (Homo sapiens (Human), UniProt Q13191), query CC1COCCN(Cc2cc3c(c(C(F)(F)F)c2)CN(c2cccc([C@]4(Cc5nncn5C)C[C@@H](C#N)C4)c2)C3=O)C1 (stereo partly drawn) . Return the value.
A) 8.30 to 8.70

Q) Please answer likewise for Cn1cnnc1C[C@]1(c2cccc(N3Cc4c(cc(CN[C@H]5CCC(F)(F)C5)cc4C(F)(F)F)C3=O)c2)C[C@H](C#N)C1
A) > 9.00

Q) Continue with C[C@@H]1C[C@H](C)CN(Cc2cc3c(c(C(F)(F)F)c2)CN(c2cccc([C@]4(Cc5nncn5C)C[C@@H](C#N)C4)c2)C3=O)C1
A) > 9.00

Q) Same again, this time with Cn1cnnc1C[C@]1(c2cccc(N3Cc4c(cc(CN5CCC6(CC6)C5)cc4C(F)(F)F)C3=O)c2)C[C@H](C#N)C1
A) 8.70 to 9.00

Q) Further, for CC1CCCCN(Cc2cc3c(c(C(F)(F)F)c2)CN(c2cccc([C@]4(Cc5nncn5C)C[C@@H](C#N)C4)c2)C3=O)C1 (stereo partly drawn) ?
A) > 9.00

Q) Quick one: Cn1cnnc1C[C@]1(c2cccc(N3Cc4c(cc(CNC5COC(C)(C)C5)cc4C(F)(F)F)C3=O)c2)C[C@H](C#N)C1 (stereo partly drawn)
A) 8.30 to 8.70
